Target: Phosphatidylinositol 4-phosphate 3-kinase C2 domain-containing subunit alpha (Homo sapiens, UniProt O00443)
Sequence (O00443 whole entry, the tested form may be a part): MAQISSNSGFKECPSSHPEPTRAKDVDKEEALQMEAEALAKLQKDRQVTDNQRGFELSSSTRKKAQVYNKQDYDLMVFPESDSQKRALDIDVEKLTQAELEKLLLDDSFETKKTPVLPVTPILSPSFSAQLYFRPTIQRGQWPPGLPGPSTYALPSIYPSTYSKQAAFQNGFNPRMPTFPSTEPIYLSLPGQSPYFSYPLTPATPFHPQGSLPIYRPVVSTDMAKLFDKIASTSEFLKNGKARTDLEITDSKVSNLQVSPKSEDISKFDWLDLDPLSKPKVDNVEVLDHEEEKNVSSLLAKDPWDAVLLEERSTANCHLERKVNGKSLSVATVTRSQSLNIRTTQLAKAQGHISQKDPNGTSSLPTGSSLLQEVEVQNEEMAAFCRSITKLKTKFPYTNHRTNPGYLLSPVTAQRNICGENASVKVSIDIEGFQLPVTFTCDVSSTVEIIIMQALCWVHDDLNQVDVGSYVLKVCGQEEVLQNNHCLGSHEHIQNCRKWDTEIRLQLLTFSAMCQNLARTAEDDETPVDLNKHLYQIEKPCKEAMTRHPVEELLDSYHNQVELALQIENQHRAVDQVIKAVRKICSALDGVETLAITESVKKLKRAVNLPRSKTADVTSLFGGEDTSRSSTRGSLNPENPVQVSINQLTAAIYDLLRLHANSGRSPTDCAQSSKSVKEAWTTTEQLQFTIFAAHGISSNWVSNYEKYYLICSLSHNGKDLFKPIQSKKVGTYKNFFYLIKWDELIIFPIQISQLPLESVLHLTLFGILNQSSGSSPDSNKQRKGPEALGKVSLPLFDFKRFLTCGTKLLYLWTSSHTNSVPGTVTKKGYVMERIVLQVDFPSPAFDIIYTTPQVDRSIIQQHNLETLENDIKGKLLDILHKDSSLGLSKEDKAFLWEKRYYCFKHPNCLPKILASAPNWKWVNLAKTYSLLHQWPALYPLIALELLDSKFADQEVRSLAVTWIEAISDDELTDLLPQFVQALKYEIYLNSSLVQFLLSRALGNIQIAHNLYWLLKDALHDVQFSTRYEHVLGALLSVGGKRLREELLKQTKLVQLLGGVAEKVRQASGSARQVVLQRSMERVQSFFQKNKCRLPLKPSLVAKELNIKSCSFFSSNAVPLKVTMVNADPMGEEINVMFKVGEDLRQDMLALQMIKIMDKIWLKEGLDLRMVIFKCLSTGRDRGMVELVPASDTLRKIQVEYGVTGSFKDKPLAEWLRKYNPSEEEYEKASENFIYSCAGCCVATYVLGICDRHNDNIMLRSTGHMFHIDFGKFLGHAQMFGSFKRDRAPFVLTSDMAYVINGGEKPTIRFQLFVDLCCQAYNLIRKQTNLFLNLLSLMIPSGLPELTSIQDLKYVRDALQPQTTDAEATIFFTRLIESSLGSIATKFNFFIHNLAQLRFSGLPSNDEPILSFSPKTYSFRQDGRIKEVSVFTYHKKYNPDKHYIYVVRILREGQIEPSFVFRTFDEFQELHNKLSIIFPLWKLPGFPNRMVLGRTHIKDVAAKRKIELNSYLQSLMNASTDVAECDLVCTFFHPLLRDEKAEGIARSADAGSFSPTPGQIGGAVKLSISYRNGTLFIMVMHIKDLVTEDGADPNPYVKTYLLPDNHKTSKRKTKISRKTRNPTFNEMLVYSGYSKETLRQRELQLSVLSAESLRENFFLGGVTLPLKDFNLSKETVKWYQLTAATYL
Experiment: Inhibition of PI3KC2alpha (unknown origin)
pIC50: −log10 of the molar value.
metric: pIC50

**Query** Which pIC50 value belongs to C[C@H]1Cc2ccccc2N1C(=O)Cc1nc(N2CCOCC2)cc(=O)[nH]1 ?
**Result** < 5.00

====

Experiment: Tmax in nude rat at 10 mg/kg, po
Format: ADME, organism-based
Set-up: dose 10 mg/kg, route oral
Conditions: in vivo
metric: Tmax (min)
# number only, unit min dropped from output

**Query** Which Tmax value belongs to C[C@H]1Cc2ccccc2N1C(=O)Cc1nc(N2CCOCC2)cc(=O)[nH]1 ?
**Result** 15
